As shown below, each of these binders has a reported pIC50 value.
molecular target: MIP-1α binding sites on human monocytes (human); assay: displacement of 125I-MIP-1α from human monocytes, filter binding
pIC50: −log10 of the molar value.
readout type: pIC50

binder="CKβ8(1-99) (ligand, Human recombinant chemokine bought from R&D Systems; also called CCL23 variant; CKβ (1-99)) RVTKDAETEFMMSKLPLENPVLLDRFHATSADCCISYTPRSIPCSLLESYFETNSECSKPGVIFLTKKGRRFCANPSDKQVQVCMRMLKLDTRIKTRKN" readout_type=pIC50 reading=7.99
binder="CKβ8-1(1-116) (ligand, Human recombinant chemokine bought from R&D Systems; also called CCL23 variant) RVTKDAETEFMMSKLPLENPVLLDMLWRRKIGPQMTLSHAAGFHATSADCCISYTPRSIPCSLLESYFETNSECSKPGVIFLTKKGRRFCANPSDKQVQVCMRMLKLDTRIKTRKN" readout_type=pIC50 reading=7.26
binder="CKβ8-1(25-116) (ligand, Human recombinant chemokine bought from R&D Systems; NH2-terminal truncated form of CKβ8-1; also called CCL23 variant) MLWRRKIGPQMTLSHAAGFHATSADCCISYTPRSIPCSLLESYFETNSECSKPGVIFLTKKGRRFCANPSDKQVQVCMRMLKLDTRIKTRKN" readout_type=pIC50 reading=8.29
binder="CKβ8(25-99) (ligand, Human recombinant chemokine bought from R&D Systems; also called CCL23 variant; CKβ (25-99)) RFHATSADCCISYTPRSIPCSLLESYFETNSECSKPGVIFLTKKGRRFCANPSDKQVQVCMRMLKLDTRIKTRKN" readout_type=pIC50 reading=9.60
binder="MIP-1α (ligand, human, UniProt P10147 27-92, looked up, also called macrophage inflammatory protein) ADTPTACCFSYTSRQIPQNFIADYFETSSQCSKPGVIFLTKRSRQVCADPSEEWVQKYVSDLELSA" readout_type=pIC50 reading=9.57
